Target: T1, human Gal10-His (human, UniProt Q05315 2-142, limits assumed)
T1 construct: also called hGal10-His; human Gal10-His tagged; not shown: His tag
T1 sequence: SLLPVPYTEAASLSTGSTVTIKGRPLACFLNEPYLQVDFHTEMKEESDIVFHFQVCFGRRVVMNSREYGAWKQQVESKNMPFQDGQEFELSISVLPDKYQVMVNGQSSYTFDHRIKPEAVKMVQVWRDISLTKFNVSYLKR
Test: SPR, overview table of lead Fab candidates
Listed here are binders together with their documented pKd.
Entry type: numeric. Quantity: pKd, the -log10 of concentration in molar units.

{"binder": "g20H09 (Fab) (Fab, V domains shown, same VH/VL) VH: EVQLLESGGGLVQPGGSLRLSCAASGFTFRSYDMSWVRQAPGKGLEWVSAIKWHRITYYADSVKGRFTISRDNSKNTLYLQMNSLRAEDTAVYYCATTHGIGTLGFGSWGQGTLVTVSS VL: SYELTQPLSVSVALGQTARITCDGNNIGSKSAQWYQQKPGQAPVLVIYADEYRPEGIPERFSGSNSGNTATLTISRAQAGDEADYYCQVWDGSAAVFGGGTQLTVL", "pKd": 7.75}

Prompt: Query: pKd; subject: g23H09 (Fab) (Fab, V domains shown, same VH/VL) VH: EVQLLESGGGLVQPGGSLRLSCAASGFTFRSYDMSWVRQAPGKGLEWVSAIAQFQHWTYYADSVKGRFTISRDNSKNTLYLQMNSLRAEDTAVYYCATTHGIGTLGFGSWGQGTLVTVSS VL: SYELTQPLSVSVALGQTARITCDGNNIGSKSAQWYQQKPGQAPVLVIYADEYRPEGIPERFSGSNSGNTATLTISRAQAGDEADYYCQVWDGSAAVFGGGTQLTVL
Completion: 8.28

Prompt: Next binder: g7B07_N53A (human Fab) (Fab, V domains shown, VH assembled by inference as for g7B07; Human Fab backbone; also called g7B07_N53A (mean)) VH: EVQLLESGGGLVQPGGSLRLSCAASGFTFRSYDMSWVRQAPGKGLEWVSAIKAGGGITYYADSVKGRFTISRDNSKNTLYLQMNSLRAEDTAVYYCATTHGIGTLGFGSWGQGTLVTVSS VL: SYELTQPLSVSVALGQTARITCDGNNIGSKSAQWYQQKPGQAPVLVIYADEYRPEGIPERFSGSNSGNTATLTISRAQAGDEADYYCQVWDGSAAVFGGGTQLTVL
Completion: 6.84

Prompt: Next binder: g24F02_N53A (human Fab) (Fab, V domains shown, Human Fab backbone: human CH1 and human lambda constant domain (pUPEX vectors); also called g24F02_N53A_2W) VH: EVQLLESGGGLVQPGGSLRLSCAASGFTFSSYAMSWVRQAPGKGLEWVSAINAGGGSTSYADSVKGRFTISRDNSKNTLYLQMNSLRAEDTAVYYCAKGLRVGVLGFDYWGQGTLVTVSS VL: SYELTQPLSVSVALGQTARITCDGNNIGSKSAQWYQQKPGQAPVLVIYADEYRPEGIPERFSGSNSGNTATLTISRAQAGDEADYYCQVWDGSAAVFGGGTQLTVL
Completion: 8.85
